Readings of Bliss excess for the listed compounds
System: SNG-M (Endometrial Carcinoma);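 also: after 72 h of two-drug dosing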
assay_details: Bliss excess, mean over the matrix (fraction); higher = more synergy

| compound | Bliss excess |
| --- | --- |
| C=CCn1c(=O)c2cnc(Nc3ccc(N4CCN(C)CC4)cc3)nc2n1-c1cccc(C(C)(C)O)n1 [AZD1775] + CCc1c2c(nc3ccc(O)cc13)-c1cc3c(c(=O)n1C2)COC(=O)[C@]3(O)CC [SN-38] (first compound max 1 µM, partner max 0.3 µM) | -0.0087 |
| CN(CCO)CC[C@H](CSc1ccccc1)Nc1ccc(S(=O)(=O)NC(=O)c2ccc(N3CCC([C@@H](O)c4ccccc4-c4ccc(Cl)cc4)CC3)cc2)cc1S(=O)(=O)C(F)(F)F [AZD4320] + CN(C)CCCOc1ccc(-c2ccc3ncc4c(c3c2)n(C2CCOCC2)c(=O)n4C)cn1 [AZD0156] (first compound max 1 µM, 7x7, partner max 1 µM) | -0.0467 |
| CS(=O)(=O)CCNCc1ccc(-c2ccc3ncnc(Nc4ccc(OCc5cccc(F)c5)c(Cl)c4)c3c2)o1 [Lapatinib] + Cn1cnc2c(F)c(Nc3ccc(Br)cc3Cl)c(C(=O)NOCCO)cc21 [Selumetinib] (first compound max 10 µM, 7x7, partner max 10 µM) | -0.071 |

Values compiled from the supplement of paper PMC11061612.
